- measurement description: Absorption spectra of thiophene derivatives in solvents of different polarity
- Format: physicochemical
- test context: DMSO, solvent polarity ET(30) 45.1
parameter measured: Maximum absorption wavelength (nm)

                                   compound             parameter_measured  quantitative_readout
0  CCCCCCN(CCCCCC)c1ccc(-c2ccc(-c3ccccn3)s2)cc1 [Compound 4]  Maximum absorption wavelength                   395
1  CCCCCCN(CCCCCC)c1ccc(-c2ccc(-c3ccncc3)s2)cc1 [Compound 3]  Maximum absorption wavelength                   401
2  CCCCCCN(CCCCCC)c1ccc(-c2ccc(-c3ncccn3)s2)cc1 [Compound 5]  Maximum absorption wavelength                   406
3  CCCCCCN(CCCCCC)c1ccc(-c2ccc(-c3cc[n+](C)cc3)s2)cc1.[I-] [Compound 6]  Maximum absorption wavelength                   497
